The measured values listed here are drawn from patent US20220213092A1.

Target: BTK (Homo sapiens, UniProt Q06187)
Construct: purchased Nanosyn, Santa Clara, Calif; host or cells: 293HEK
Sequence (Q06187 whole entry): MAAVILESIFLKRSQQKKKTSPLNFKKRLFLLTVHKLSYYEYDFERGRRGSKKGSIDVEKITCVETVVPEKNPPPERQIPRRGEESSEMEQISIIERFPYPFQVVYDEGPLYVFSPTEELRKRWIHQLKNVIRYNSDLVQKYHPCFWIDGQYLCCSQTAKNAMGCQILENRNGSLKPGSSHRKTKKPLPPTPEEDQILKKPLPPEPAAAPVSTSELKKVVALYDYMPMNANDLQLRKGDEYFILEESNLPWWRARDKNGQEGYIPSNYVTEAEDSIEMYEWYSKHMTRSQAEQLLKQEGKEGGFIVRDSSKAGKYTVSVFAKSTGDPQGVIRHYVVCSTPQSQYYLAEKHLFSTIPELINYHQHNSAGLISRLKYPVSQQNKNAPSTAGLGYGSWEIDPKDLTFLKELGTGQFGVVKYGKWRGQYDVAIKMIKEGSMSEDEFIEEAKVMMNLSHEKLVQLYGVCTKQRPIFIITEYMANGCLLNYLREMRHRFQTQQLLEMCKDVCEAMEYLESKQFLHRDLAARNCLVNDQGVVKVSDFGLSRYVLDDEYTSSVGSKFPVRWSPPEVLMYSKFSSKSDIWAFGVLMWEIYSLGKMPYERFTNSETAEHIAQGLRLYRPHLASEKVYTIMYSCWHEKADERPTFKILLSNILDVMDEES
Experiment: BTK kinase electrophoretic mobility shift assay (MSA)
Assay type: biochemical
Conditions: 50 μM ATP, 0.5 nM BTK enzyme (Nanosyn-293HEK, WT), 3 hours at 25° C.; all examples except 50, 51, 62 and 63; read-out: BTK IC50
test.readout: IC50 (nM)

These recorded examples may help you get a feel for the data.
molecule | value.unit | assay.value
C=CC(=O)N1CCN([C@@H]2CCNc3c2nn(-c2ccc(Oc4ccccc4C4CC4)cc2)c3C(N)=O)CC1 | nM | 3.18
C=CC(=O)N1CCN([C@@H]2CCNc3c2nn(-c2ccc(Oc4cccc(C(F)(F)F)c4)cc2)c3C(N)=O)CC1 | nM | 0.953
C=CC(=O)N1CCN(C2CCNc3c2nn(-c2ccc(Oc4cccc(F)c4)cc2)c3C(N)=O)CC1 (centres unmarked) | nM | 1.76

A: C=CC(=O)N1CC(N2CCNc3c2nn(-c2ccc(Oc4cccc(F)c4F)cc2)c3C(N)=O)C1
B: C=CC(=O)N1CCN([C@H]2CCNc3c2nn(-c2ccc(Oc4cccc(C)c4)cc2)c3C(N)=O)CC1
C: C=CC(=O)N1CCC(C2CCNc3c2nn(-c2ccc(Oc4ccc(F)cc4)cc2)c3C(N)=O)CC1 (centres unmarked)
D: C=CC(=O)N1CCC([C@H]2CCNc3c2nn(-c2ccc(Oc4ccccc4)cc2)c3C(N)=O)CC1
Put the items in order so that reported IC50 rises from first to last. I would appreciate it if you listed the labels in the requested order.
D, A, C, B
(D: 0.331 nM, A: 0.968 nM, C: 2.25 nM, B: 14.1 nM)

====

Target: MAP2K1 (Homo sapiens, UniProt Q02750)
Sequence (Q02750 whole entry, species assumed): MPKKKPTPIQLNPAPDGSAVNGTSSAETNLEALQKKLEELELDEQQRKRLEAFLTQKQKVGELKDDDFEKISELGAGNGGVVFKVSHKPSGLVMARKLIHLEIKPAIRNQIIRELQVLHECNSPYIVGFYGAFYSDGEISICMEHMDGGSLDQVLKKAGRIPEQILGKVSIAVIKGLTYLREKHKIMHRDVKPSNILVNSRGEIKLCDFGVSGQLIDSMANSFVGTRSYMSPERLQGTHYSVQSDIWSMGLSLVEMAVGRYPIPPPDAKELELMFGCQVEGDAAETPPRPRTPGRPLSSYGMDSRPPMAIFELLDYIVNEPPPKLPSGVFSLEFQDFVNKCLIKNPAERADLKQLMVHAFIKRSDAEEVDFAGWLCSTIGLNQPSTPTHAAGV
test.readout: pIC50
Reminder that pIC50 is minus the log10 of a molar concentration.

Report pIC50 from MAP2K1 (Homo sapiens, UniProt Q02750) testing of C=CC(=O)N1CCC([C@@H]2CCNc3c(C(N)=O)c(-c4ccc(Oc5ccccc5)cc4)nn32)CC1 [Compound A, reference compound]
7.38

====

Molecular target: TEC (Homo sapiens)
Sequence (P42680 whole entry): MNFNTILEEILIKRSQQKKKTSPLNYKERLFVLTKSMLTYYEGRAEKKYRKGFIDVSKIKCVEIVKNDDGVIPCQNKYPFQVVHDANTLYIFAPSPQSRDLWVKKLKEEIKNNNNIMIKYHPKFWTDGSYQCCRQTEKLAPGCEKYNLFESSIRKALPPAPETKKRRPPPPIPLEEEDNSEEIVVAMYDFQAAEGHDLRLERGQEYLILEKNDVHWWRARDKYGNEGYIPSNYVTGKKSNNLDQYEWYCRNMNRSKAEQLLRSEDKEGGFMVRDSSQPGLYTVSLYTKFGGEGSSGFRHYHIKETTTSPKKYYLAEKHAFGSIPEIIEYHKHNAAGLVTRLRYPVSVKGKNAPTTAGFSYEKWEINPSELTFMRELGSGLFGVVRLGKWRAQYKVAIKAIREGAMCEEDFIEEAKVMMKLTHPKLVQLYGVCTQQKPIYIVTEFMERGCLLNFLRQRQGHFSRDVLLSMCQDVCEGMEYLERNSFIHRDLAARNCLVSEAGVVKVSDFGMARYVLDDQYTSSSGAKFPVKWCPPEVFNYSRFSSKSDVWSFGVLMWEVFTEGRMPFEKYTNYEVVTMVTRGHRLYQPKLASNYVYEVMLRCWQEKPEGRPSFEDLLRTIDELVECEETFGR
Test: Other kinase MSA: TEC
Type: biochemical
test.readout: pIC50
API: returns pIC50 as number; meaning -log10 of concentration in mol/L.

Supply reported pIC50 belonging to this molecule: C=CC(=O)N1CCN([C@@H]2CCNc3c2nn(-c2ccc(Oc4ccccc4)cc2)c3C(N)=O)CC1 [Example 6]
7.83

====

Experiment: Chemical inhibition in human hepatocytes (intrinsic clearance with and without CYP inhibitors)
Format: in vitro ADME
Details: human, human hepatocyte suspension, 0.5 μM Compound 6, no inhibitor; read-out: CLint, no inhibitor
test.readout: hepatocyte CLint at 0.5 μM (µL/min/1e6 cells)
I only need the number, in µL/min/1e6 cells, no unit after it.

Input C=CC(=O)N1CCN([C@@H]2CCNc3c2nn(-c2ccc(Oc4ccccc4)cc2)c3C(N)=O)CC1 , output reported hepatocyte CLint at 0.5 μM.
13.3

====

Target: BTK (Homo sapiens)
Construct: purchased Nanosyn, Santa Clara, Calif; host or cells: 293HEK
Test: BTK kinase electrophoretic mobility shift assay (MSA)
Type: biochemical
Settings: 50 μM ATP, 0.5 nM BTK enzyme (Nanosyn-293HEK, WT), 3 hours at 25° C.; all examples except 50, 51, 62 and 63; read-out: BTK IC50
test.readout: IC50 (nM)

compound | measured.on | assay.value
C=CC(=O)N1C2CC1CN(C1CCNc3c1nn(-c1ccc(Oc4ccccc4)cc1)c3C(N)=O)C2 (stereo not shown) [Example 45] | BTK (Homo sapiens) | 2.33

A: C=CC(=O)N1CCN([C@H]2CCNc3c2nn(-c2ccc(Oc4ccccc4OC)cc2)c3C(N)=O)CC1 [Example 97]
B: C=CC(=O)N1CCN([C@@H]2CCNc3c2nn(-c2ccc(Oc4cccc(F)c4F)cc2)c3C(N)=O)CC1 [Example 77]
Two entries are listed, A and B . Which one carries the higher IC50? Provide the label of your selected option as the answer.
A

====

System: CYP3A4
Experiment: CYP3A4 induction assay (CYP 3A4 mRNA by qPCR in cryopreserved human hepatocytes)
Assay type: in vitro ADME
Conditions: CYP3A4 mRNA fold change vs vehicle, 10 μM compound
test.readout: CYP3A4 Ind. fold (fold)

Example compounds with recorded CYP3A4 Ind. fold:
compound | assay.value
C=CC(=O)N1C2CC1CN(C1CCNc3c1nn(-c1ccc(Oc4ccccc4)cc1)c3C(N)=O)C2 (stereo not shown) [Example 45] | 25.40
C=CC(=O)N1CCN([C@@H]2CCNc3c2nn(-c2ccc(Oc4ccccc4)cc2)c3C(N)=O)CC1 [Example 6] | 0.9

A: C=CC(=O)N1CCN([C@H]2CCNc3c2nn(-c2ccc(Oc4cc(F)cc(F)c4)cc2)c3C(N)=O)CC1 [Example 59]
B: C=CC(=O)N1CCN([C@@H]2CCNc3c2nn(-c2ccc(Oc4cc(F)cc(F)c4)cc2)c3C(N)=O)CC1 [Example 58]
Lab note: check whether A or B shows the higher recorded CYP3A4 Ind. fold. Provide the label of your selected option as the answer.
B

====

Molecular target: BTK (Homo sapiens, UniProt Q06187)
Construct: purchased Nanosyn, Santa Clara, Calif; host or cells: 293HEK
Experiment: BTK kinase electrophoretic mobility shift assay (MSA)
Type: biochemical
Details: 50 μM ATP, 0.5 nM BTK enzyme (Nanosyn-293HEK, WT), 3 hours at 25° C.; all examples except 50, 51, 62 and 63; read-out: BTK IC50
pIC50: −log10 of the molar value.
test.readout: pIC50

Examples with answers:
compound | pIC50
C=CC(=O)N1CCN([C@@H]2CCNc3c2nn(-c2ccc(Oc4cccc(OC(F)(F)F)c4)cc2)c3C(N)=O)CC1 | 8.76
C=CC(=O)N1CCCN(C2CCNc3c2nn(-c2ccc(Oc4ccccc4)cc2)c3C(N)=O)CC1 (stereo not shown) | 7.53
C=CC(=O)N1C2CC1CN([C@@H]1CCNc3c1nn(-c1ccc(Oc4ccccc4)cc1)c3C(N)=O)C2 | 7.80
C=CC(=O)N1CCC(O)(C2CCNc3c2nn(-c2ccc(Oc4ccccc4)cc2)c3C(N)=O)CC1 (stereo not shown) | 8.85
C=CC(=O)N1CCC(C2CCNc3c2nn(-c2ccc(Oc4cccc(C(F)(F)F)c4)cc2)c3C(N)=O)CC1 (stereo not shown) | 8.69

I: C=CC(=O)N1CCC([C@@H]2CCNc3c2nn(-c2ccc(Oc4ccccc4)cc2)c3C(N)=O)CC1
II: C=CC(=O)N1CCN([C@H]2CCNc3c2nn(-c2ccc(Oc4ccccc4C(F)(F)F)cc2)c3C(N)=O)CC1
// max by pIC50 over [ I , II ] Identify your pick by its label.
I
(I: 7.98, II: 7.57)

====

Target: BTK (Homo sapiens, UniProt Q06187)
Construct: purchased Nanosyn, Santa Clara, Calif; host or cells: 293HEK
Assay: BTK kinase electrophoretic mobility shift assay (MSA)
Assay type: biochemical
test.readout: IC50 (nM)
Give a bare numeral; the unit nM is implied.

Report IC50, nothing else, for this compound: NC(=O)c1c2c(nn1-c1ccc(Oc3ccccc3)cc1)C(N1CCN(C(=O)CF)CC1)CCN2 (stereo not shown) [Example 49]
398

====

Biological target: TXK (Homo sapiens, UniProt P42681)
Sequence (P42681 whole entry, species assumed): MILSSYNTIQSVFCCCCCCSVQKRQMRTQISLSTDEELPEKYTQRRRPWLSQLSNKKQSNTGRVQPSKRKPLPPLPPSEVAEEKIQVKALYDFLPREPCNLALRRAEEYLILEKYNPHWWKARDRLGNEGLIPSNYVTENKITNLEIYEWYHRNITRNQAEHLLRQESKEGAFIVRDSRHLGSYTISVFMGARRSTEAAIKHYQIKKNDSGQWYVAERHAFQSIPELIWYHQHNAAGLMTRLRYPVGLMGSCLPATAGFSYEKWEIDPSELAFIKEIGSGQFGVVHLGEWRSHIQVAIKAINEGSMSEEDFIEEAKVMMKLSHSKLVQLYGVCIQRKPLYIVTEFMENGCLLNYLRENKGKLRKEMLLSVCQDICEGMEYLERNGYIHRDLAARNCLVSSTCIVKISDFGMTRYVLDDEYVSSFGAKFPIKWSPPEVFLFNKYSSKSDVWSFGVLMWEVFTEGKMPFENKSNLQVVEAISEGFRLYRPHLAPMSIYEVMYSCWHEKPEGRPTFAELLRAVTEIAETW
Assay: Other kinase MSA: TXK
Type: biochemical
Conditions: 100 μM ATP, SRCtide substrate, 3 hours; read-out: IC50, Enzyme TXK
test.readout: pIC50
Formally, pIC50 is defined as -log10 of the concentration c, with c in mol/L.

Fill in pIC50 for C=CC(=O)N1CCC([C@@H]2CCNc3c(C(N)=O)c(-c4ccc(Oc5ccccc5)cc4)nn32)CC1 [Compound A, reference compound] tested with TXK (Homo sapiens, UniProt P42681).
8.72

====

Molecular target: EGFR (Homo sapiens, UniProt P00533)
Sequence (P00533 25-1210, species assumed): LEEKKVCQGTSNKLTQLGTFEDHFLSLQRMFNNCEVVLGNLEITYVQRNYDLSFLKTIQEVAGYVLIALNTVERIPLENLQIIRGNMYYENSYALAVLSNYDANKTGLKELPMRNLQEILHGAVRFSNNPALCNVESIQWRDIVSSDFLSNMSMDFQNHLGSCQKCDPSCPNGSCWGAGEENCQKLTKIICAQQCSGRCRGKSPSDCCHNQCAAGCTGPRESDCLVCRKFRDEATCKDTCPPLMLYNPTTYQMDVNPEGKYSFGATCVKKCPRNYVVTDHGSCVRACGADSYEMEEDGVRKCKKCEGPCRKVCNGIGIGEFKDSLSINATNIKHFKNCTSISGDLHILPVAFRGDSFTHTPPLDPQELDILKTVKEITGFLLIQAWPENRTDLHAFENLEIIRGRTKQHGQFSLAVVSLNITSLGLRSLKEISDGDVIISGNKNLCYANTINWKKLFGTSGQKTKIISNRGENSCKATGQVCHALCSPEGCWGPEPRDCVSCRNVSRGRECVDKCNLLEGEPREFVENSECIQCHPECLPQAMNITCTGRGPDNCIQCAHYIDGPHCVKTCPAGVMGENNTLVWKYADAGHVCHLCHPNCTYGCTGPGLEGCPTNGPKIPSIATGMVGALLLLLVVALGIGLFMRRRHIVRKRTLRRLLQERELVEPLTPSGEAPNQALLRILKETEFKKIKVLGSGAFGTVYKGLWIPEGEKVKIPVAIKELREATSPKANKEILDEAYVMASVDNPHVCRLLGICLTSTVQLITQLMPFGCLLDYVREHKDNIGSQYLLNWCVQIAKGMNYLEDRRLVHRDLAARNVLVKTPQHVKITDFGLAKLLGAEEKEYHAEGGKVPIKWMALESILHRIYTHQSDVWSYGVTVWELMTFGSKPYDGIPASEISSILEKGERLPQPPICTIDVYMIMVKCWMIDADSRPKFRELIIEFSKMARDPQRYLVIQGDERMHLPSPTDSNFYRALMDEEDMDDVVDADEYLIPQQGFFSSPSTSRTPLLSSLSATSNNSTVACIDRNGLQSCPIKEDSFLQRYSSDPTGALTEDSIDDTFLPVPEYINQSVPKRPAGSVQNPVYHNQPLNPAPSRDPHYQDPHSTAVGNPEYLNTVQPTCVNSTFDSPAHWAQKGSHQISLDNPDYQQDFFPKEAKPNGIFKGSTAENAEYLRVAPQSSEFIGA
Assay: Other kinase MSA: EGFR
Assay type: biochemical
Details: 5 μM ATP, CSKtide substrate, 3 hours; read-out: IC50, Enzyme EGFR
test.readout: IC50 (nM)
Provide the reading as a plain figure in nM.

Read the entry C=CC(=O)N1CCN([C@@H]2CCNc3c2nn(-c2ccc(Oc4ccccc4)cc2)c3C(N)=O)CC1 and write its reported IC50.
844

====

Biological target: BTK (Homo sapiens, UniProt Q06187)
Construct: purchased Nanosyn, Santa Clara, Calif; host or cells: 293HEK
Test: BTK kinase electrophoretic mobility shift assay (MSA)
Assay type: biochemical
Conditions: 50 μM ATP, 0.5 nM BTK enzyme (Nanosyn-293HEK, WT), 3 hours at 25° C.; all examples except 50, 51, 62 and 63; read-out: BTK IC50
Protocol: Kinase activity, unless otherwise indicated, was measured in vitro using an electrophoretic mobility shift assay (MSA). The phosphorylation of a peptide substrate by BTK and other kinases was measured. […] The terminated reactions were analyzed using a 12 channel LABCHIP® 3000 microfluidic detection instrument (available from Caliper Life Sciences, Waltham, Mass.). […] Change in the relative fluorescence intensity of the substrate and product peaks was the parameter measured, reflecting enzyme activity. […]
pIC50: −log10 of the molar value.
test.readout: pIC50

compound | measured.on | pIC50
C=CC(=O)N1CCN([C@@H]2CCNc3c2nn(-c2ccc(Oc4cccc(C#N)c4)cc2)c3C(N)=O)CC1 [Example 64] | BTK (Homo sapiens, UniProt Q06187) | 8.25

A: C=CC(=O)N1CCN(C2CCNc3c2nn(-c2ccc(Oc4ccccc4)cc2)c3C(N)=O)CC12CC2 (centres unmarked) [Example 53]
B: C=CC(=O)N1CCN([C@H]2CCNc3c2nn(-c2ccc(Oc4ccccc4)cc2)c3C(N)=O)CC12CC2 [Example 83]
C: C=CC(=O)N1CCN([C@H]2CCNc3c2nn(-c2ccc(Oc4cc(F)cc(F)c4)cc2)c3C(N)=O)CC1 [Example 59]
D: C=CC(=O)N1CCN([C@H]2CCNc3c2nn(-c2ccc(Oc4ccccc4C)cc2)c3C(N)=O)CC1 [Example 94]
E: CC#CC(=O)N1CCC(N2CCNc3c2nn(-c2ccc(Oc4ccccc4)cc2)c3C(N)=O)CC1 [Example 19]
Endpoint returns the given compounds ordered by ascending pIC50. Please list the labels according to the requested order.
B, D, E, C, A

A: C=CC(=O)N1CCN(C2CCNc3c2nn(-c2ccc(Oc4ccccc4C(F)(F)F)cc2)c3C(N)=O)CC1 (centres unmarked) [Example 54]
B: C=CC(=O)N1CCN([C@@H]2CCNc3c2nn(-c2ccc(Oc4cccc(F)c4)cc2)c3C(N)=O)CC1 [Example 67]
Could you tell me which of these two has the smaller pIC50 figure? First: A Second: B Answer = label.
A

I: C=CC(=O)N1CC(N2CCNc3c2nn(-c2ccc(Oc4ccccc4)cc2)c3C(N)=O)C1 [Example 22]
II: C=CC(=O)N1CCN(C2CCNc3c2nn(-c2ccc(Oc4cc(F)cc(F)c4)cc2)c3C(N)=O)CC1 (centres unmarked) [Example 55]
Param pair: I , II . Output: the one whose pIC50 is numerically greater. Refer to your chosen item by its label in the answer.
I

A: C=CC(=O)N1CC(N2CCNc3c2nn(-c2ccc(Oc4ccccc4F)cc2)c3C(N)=O)C1 [Example 75]
B: C=CC(=O)N1CCN([C@@H]2CCNc3c2nn(-c2ccc(Oc4ccc(OC(F)(F)F)cc4)cc2)c3C(N)=O)CC1 [Example 85]
C: C=CC(=O)N1C2CC1CN([C@H]1CCNc3c1nn(-c1ccc(Oc4ccccc4)cc1)c3C(N)=O)C2 [Example 72]
Put the items in order so that reported pIC50 rises from first to last. List labels; respect the requested ordering.
B, C, A
